What inhibition was measured for each of the following?
Test system: Mast/stem cell growth factor receptor Kit (Homo sapiens), P10721 [V560G]
Sequence (P10721 whole entry V560G): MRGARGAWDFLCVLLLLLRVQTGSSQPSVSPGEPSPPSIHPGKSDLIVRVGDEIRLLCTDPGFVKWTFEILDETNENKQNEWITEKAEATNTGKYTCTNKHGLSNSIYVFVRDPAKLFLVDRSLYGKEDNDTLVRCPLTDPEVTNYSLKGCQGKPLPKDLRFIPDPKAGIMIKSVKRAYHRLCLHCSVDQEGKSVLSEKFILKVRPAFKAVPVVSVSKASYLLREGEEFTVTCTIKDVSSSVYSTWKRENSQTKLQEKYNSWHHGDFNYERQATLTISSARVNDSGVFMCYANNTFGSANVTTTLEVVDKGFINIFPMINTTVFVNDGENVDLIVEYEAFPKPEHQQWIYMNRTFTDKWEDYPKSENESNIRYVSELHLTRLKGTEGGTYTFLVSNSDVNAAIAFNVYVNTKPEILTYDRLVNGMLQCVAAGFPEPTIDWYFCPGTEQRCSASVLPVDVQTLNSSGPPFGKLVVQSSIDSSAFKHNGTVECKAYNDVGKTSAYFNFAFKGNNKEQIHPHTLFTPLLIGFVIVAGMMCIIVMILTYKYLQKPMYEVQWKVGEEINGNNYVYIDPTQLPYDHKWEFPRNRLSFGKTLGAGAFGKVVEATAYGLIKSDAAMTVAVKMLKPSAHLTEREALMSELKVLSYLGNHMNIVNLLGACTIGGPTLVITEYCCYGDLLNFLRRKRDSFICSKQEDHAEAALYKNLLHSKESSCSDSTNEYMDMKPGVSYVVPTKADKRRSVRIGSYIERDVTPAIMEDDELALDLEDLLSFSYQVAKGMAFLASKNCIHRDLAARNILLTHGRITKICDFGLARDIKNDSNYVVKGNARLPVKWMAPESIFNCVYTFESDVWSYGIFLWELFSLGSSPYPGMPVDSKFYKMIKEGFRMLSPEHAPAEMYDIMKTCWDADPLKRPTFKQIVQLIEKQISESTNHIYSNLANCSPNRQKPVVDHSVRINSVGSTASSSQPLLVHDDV
Details: at 0.1 µM
Answer with a number only, understood to be in %.

Input line: Any idea what inhibition was measured for N#Cc1c(NC(=O)c2ccccc2F)sc2c1CCCC2 ?
Output line: 2.34

Input line: Record request: inhibition value, item CN(C)C(=O)O[C@@H]1CN[C@@H](C#Cc2cc3ncnc(Nc4ccc(OCc5cccc(F)c5)c(Cl)c4)c3s2)C1
Output line: 0.19

Input line: State the recorded inhibition for this entry: Cc1ccc(NC(=O)CC2CC2)cc1-c1ccc(C(=O)NCC2CC2)cc1
Output line: 1.38

Input line: Can you look up the measured inhibition of O=S(=O)(CCOCc1ccc(-c2ccc3ncnc(Nc4ccc(OCc5cccc(F)c5)c(Cl)c4)c3c2)o1)c1ccccc1 for me?
Output line: -1.47

Input line: # query: inhibition of entry c1ccc(Cc2nc3ccc(Nc4ncnc5ccccc45)cc3[nH]2)cc1
Output line: 2.34

Input line: Given COc1cc2ncnc(Nc3ccc4c(cnn4Cc4ccccc4)c3)c2cc1OC , state its recorded inhibition.
Output line: -3.09

Input line: Look up inhibition for this compound: Cc1nc(-c2ccccc2)n2nc(NCCCN3CCOCC3)ncc12
Output line: -1.38

Input line: Quick one: inhibition for CC(C)c1ccc2c(c1)NC(=O)/C2=N/Nc1ccc(S(N)(=O)=O)cc1 ?
Output line: 9.17

Input line: // inhibition lookup, key: CCCN1CCCC(c2ccc(Nc3nc(Nc4cc(F)ccc4C(N)=O)c4cc[nH]c4n3)c(OC)c2)C1 (centres undefined)
Output line: -0.05

Input line: Looking for the measured inhibition of Cc1ccc(C(=O)NC2CC2)cc1-c1ccc2[nH]ncc2c1 , can you help?
Output line: 1.39

Input line: Could you tell me which inhibition is on file for CN1CCN(C(=O)c2ccc(NC(=O)Nc3ccc(N(C)c4ccnc(Nc5ccc(CS(C)(=O)=O)cc5)n4)cc3)cc2)CC1 ?
Output line: 75.1

Input line: GET /values?readout=inhibition&item= COc1cccc(-n2nc(C)c3c(N/N=C(\C)c4ccncc4)ncnc32)c1
Output line: 2.07

Input line: Tell me the measured inhibition of NS(=O)(=O)c1ccc(NC=C2C(=O)Nc3ccc4ncsc4c32)cc1 , please.
Output line: 1.8

Input line: Look up inhibition for this compound: NS(=O)(=O)c1ccc(N/N=C2\C(=O)Nc3ccc(Cl)cc32)cc1
Output line: 2.89

====

Biological target: 5'-AMP-activated protein kinase catalytic subunit alpha-1 (Homo sapiens) (UniProt Q13131)
Sequence (Q13131 whole entry, looked up): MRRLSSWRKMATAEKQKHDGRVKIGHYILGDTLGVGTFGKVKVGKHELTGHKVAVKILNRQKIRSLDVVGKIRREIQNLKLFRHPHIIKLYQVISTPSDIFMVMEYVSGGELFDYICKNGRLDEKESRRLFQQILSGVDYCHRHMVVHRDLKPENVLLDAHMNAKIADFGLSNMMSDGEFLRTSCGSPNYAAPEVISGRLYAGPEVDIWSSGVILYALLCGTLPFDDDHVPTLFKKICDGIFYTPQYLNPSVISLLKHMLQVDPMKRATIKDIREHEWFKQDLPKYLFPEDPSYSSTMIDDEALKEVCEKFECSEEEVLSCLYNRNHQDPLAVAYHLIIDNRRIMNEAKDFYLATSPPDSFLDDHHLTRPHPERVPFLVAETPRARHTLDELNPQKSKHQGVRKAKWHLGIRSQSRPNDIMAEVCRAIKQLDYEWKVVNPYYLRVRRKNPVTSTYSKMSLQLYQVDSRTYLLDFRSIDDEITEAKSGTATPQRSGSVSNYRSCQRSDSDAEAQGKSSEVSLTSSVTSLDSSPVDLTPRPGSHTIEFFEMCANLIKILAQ
Conditions: at 1 µM
I'd appreciate it if you could supply inhibition values for the items below.
// note: answer is a bare numeric in %

Input line: Param readout= inhibition; system= 5'-AMP-activated protein kinase catalytic subunit alpha-1 (Homo sapiens) (UniProt Q13131); entry= COc1cccc(-n2ncc3c(N/N=C/c4ccc(C)cc4)ncnc32)c1 ; returns value.
Output line: 6.98

Input line: Checklist item: inhibition tested on 5'-AMP-activated protein kinase catalytic subunit alpha-1 (Homo sapiens) (UniProt Q13131), entry COc1cc(/C=N/Nc2ncnc3c2cnn3C(C)C)ccc1O , value?;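 note: mean percent inhibition of the AMPK A1B1G1 complex (alpha1 beta1 gamma1) in the GSK PKIS kinase inhibitor screen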
Output line: 4.22

Input line: Lab note: need inhibition with 5'-AMP-activated protein kinase catalytic subunit alpha-1 (Homo sapiens) (UniProt Q13131) for entry CN(C)C(=O)O[C@H]1CN[C@H](C#Cc2cc3ncnc(Nc4ccc(OCc5cccc(F)c5)c(Cl)c4)c3s2)C1 , please look it up.
Output line: 2.18

Input line: What inhibition appears in the records for this molecule with 5'-AMP-activated protein kinase catalytic subunit alpha-1 (Homo sapiens) (UniProt Q13131)? Cc1ccc(NC(=O)CC2CC2)cc1-c1ccc(C(=O)NCC2CC2)cc1
Output line: 3.58
